Tested on: VCaP cells
METHOD_NOTES: Anti-proliferative toxicity against prostate cancer cell line Vcap (CCK8)
Format: cell-based, human
CONDITIONS: Homo sapiens, 72 h, 3 days, CCK8
REPORTED_ENDPOINT: IC50

Solved entries (count: 4):
## Task # lookup: IC50 of C[C@]12C=CC(=O)N[C@@H]1CC[C@@H]1[C@@H]2CC[C@]2(C)[C@@H](C(=O)Nc3cccc(OCCNc4ccc5c(c4)C(=O)N(C4CCC(=O)NC4=O)C5=O)c3)CC[C@@H]12 (some centres unmarked)
## Result > 1000 nM

## Task Field entry: C[C@]12C=CC(=O)N[C@@H]1CC[C@@H]1[C@@H]2CC[C@]2(C)[C@@H](C(=O)Nc3ccc(OCCCCCCCCNc4ccc5c(c4)C(=O)N(C4CCC(=O)NC4=O)C5=O)cc3)CC[C@@H]12 (some centres unmarked)
## Result 0.1 to 10 nM

## Task Lookup C[C@]12C=CC(=O)N[C@@H]1CC[C@@H]1[C@@H]2CC[C@]2(C)[C@@H](C(=O)Nc3cccc(OCCCCNc4cccc5c4C(=O)N(C4CCC(=O)NC4=O)C5=O)c3)CC[C@@H]12 (some centres unmarked)
## Result > 1000 nM

## Task Cool, now C[C@]12C=CC(=O)N[C@@H]1CC[C@@H]1[C@@H]2CC[C@]2(C)[C@@H](C(=O)Nc3cccc(OCCCCCNc4cccc5c4C(=O)N(C4CCC(=O)NC4=O)C5=O)c3)CC[C@@H]12 (some centres unmarked)
## Result > 1000 nM

Kindly consider the entry below.
## Task Given C[C@]12C=CC(=O)N[C@@H]1CC[C@@H]1[C@@H]2CC[C@]2(C)[C@@H](C(=O)Nc3cccc(N[C@@H]4CCC[C@@H](Nc5cc(F)cc6c5C(=O)N(C5CCC(=O)NC5=O)C6=O)C4)c3)CC[C@@H]12 (some centres unmarked) , state its recorded IC50.
## Result 0.1 to 10 nM
